protocol_notes: Oral bioavailability in rat at 3 mg/kg
Format: ADME, organism-based
test_settings: in vivo

{"columns": ["smiles_record", "bioavailability"],
 "data": [
  ["CC1(C)NC(=O)N(C[C@@H](COc2ccc(-c3ccc(OC(F)(F)F)cc3)cc2)N(O)C=O)C1=O", "84%"]
]}

---

system_tested: Matrix metalloproteinase-9 (Homo sapiens, UniProt P14780)
Sequence (P14780 whole entry): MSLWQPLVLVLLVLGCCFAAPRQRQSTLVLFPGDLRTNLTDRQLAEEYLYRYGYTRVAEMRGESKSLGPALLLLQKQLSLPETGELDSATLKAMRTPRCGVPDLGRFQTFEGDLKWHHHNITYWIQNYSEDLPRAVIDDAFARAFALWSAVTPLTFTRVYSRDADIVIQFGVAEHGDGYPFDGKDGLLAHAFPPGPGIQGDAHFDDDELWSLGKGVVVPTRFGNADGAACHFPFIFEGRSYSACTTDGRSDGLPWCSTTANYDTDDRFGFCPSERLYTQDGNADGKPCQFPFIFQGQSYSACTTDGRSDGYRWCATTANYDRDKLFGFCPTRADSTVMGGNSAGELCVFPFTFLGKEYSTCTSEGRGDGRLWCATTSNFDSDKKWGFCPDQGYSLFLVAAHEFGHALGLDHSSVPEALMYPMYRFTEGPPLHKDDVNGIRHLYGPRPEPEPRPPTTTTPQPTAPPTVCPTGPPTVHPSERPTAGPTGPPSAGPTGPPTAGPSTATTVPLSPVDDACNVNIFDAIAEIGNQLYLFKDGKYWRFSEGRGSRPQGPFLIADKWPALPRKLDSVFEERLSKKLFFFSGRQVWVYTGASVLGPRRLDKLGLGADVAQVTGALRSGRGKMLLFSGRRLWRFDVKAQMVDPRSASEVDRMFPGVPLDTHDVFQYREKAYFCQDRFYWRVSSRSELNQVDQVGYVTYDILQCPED
protocol_notes: Inhibition of MMP-9 (unknown origin)
Overview of reported IC50 across a group of molecules:

{"columns": ["molecule", "IC50 [nM]"],
 "data": [
  ["O=C(O)CS(=O)(=O)c1ccc(-c2ccccc2)cc1", 212000],
  ["NC(=O)CCC(NS(=O)(=O)c1ccc(-c2ccccc2)cc1)C(=O)O (stereo not given)", 3.57],
  ["CO[C@H](C(=O)NO)[C@@H](CC(C)C)C(=O)N[C@H](C(=O)Nc1ccccn1)C(C)(C)C", 70],
  ["CNC(=O)[C@@H](NC(=O)[C@H](CC(C)C)NC(=O)[C@H](S)CCN1C(=O)N(C)C(C)(C)C1=O)C(C)(C)C", 25],
  ["O=C(CCC(NS(=O)(=O)c1ccc(-c2ccccc2)cc1)C(=O)O)NCc1ccccc1 (stereo not given)", 0.704],
  ["CC(C)ON([C@@H](CCNC(=O)OCc1ccccc1)C(=O)NO)S(=O)(=O)c1ccc(-c2ccccc2)cc1", 16],
  ["O=C(CS(=O)(=O)c1ccc(-c2ccccc2)cc1)NO", 140],
  ["CN(C)c1ccc(O)c2c1C[C@H]1C[C@H]3[C@H](N(C)C)C(O)=C(C(N)=O)C(=O)[C@@]3(O)C(O)=C1C2=O", 180000],
  ["CCNC(=O)CCC(NS(=O)(=O)c1ccc(-c2ccccc2)cc1)C(=O)O (stereo not given)", 1.19],
  ["C=CC[C@H](C(=O)NO)C(CC(C)C)C(=O)N[C@@H](Cc1ccccc1)C(=O)NC (stereo not given in full)", 3]
]}
